Where do the numbers come from? From patent US20260042764A1.

Molecular target: Avi-KRAS WT (1-169) GppNHp/RAF1 RBD-3xFLAG (52-151) (Homo sapiens, UniProt P01116)
Construct: Avi-KRAS WT (1-169)
Sequence (P01116 1-169 isoform P01116-2): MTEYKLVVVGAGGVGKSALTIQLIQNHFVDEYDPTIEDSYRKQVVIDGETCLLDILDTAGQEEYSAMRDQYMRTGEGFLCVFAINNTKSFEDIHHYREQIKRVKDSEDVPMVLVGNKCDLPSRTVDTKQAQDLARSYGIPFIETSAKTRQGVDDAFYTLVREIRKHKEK
Experiment: Raf1-KRAS WT-GppNHP disruption HTRF assay (Biological Example 1)
Format: binding
Conditions: KRAS WT, GppNHp-loaded; class symbols
Parameter IC50: see the listing below.

Request: API: value(readout= IC50, system= Avi-KRAS WT (1-169) GppNHp/RAF1 RBD-3xFLAG (52-151) (Homo sapiens, UniProt P01116), query= `CCN(c1nc(OC[C@H]2C[C@@H](OC)CN2C)nc2c(F)c(-c3ccc(F)c4sc(N)c(C#N)c34)c(C(F)(F)F)cc12)[C@H]1CCN(C(=O)C(C)C)C1` )
Result: 1000 to 10000 nM

Request: API: value(readout= IC50, system= Avi-KRAS WT (1-169) GppNHp/RAF1 RBD-3xFLAG (52-151) (Homo sapiens, UniProt P01116), query= CCN(c1nc(OC[C@@]23CCCN2C[C@H](F)C3)nc2c(F)c(-c3ccc(F)c4sc(N)c(C#N)c34)c(C(F)(F)F)cc12)[C@H]1CCN(C(=O)[C@@H](C)OC)C1 (atropisomer, axis not shown) )
Result: < 100 nM

Request: API: value(readout= IC50, system= Avi-KRAS WT (1-169) GppNHp/RAF1 RBD-3xFLAG (52-151) (Homo sapiens, UniProt P01116), query= CC(=O)N1CC[C@H]2[C@@H]1CN2c1nc(OC[C@@]23CCCN2C[C@H](F)C3)nc2c(F)c(-c3ccc(F)c4sc(N)c(C#N)c34)c(C(F)(F)F)cc12 (atropisomer, axis not shown) )
Result: 100 to 1000 nM

Request: API: value(readout= IC50, system= Avi-KRAS WT (1-169) GppNHp/RAF1 RBD-3xFLAG (52-151) (Homo sapiens, UniProt P01116), query= CCN(c1nc(OC[C@@]23CCCN2C[C@H](F)C3)nc2c(F)c(-c3ccc(F)c4sc(N)c(C#N)c34)c(C(F)(F)F)cc12)[C@H]1CC(=O)N(C)C1 (atropisomer, axis not shown) )
Result: < 100 nM

Request: API: value(readout= IC50, system= Avi-KRAS WT (1-169) GppNHp/RAF1 RBD-3xFLAG (52-151) (Homo sapiens, UniProt P01116), query= CCN(c1nc(OC[C@@]23CCCN2C[C@H](F)C3)nc2c(F)c(-c3ccc(F)c4sc(N)c(C#N)c34)c(C(F)(F)F)cc12)[C@H]1CCN(C(=O)C2C[C@@H]2F)C1 (stereo partly drawn) )
Result: < 100 nM

Request: API: value(readout= IC50, system= Avi-KRAS WT (1-169) GppNHp/RAF1 RBD-3xFLAG (52-151) (Homo sapiens, UniProt P01116), query= CCN(c1nc(OC[C@@]23CCCN2C[C@H](F)C3)nc2c(F)c(-c3ccc(F)c4sc(N)c(C#N)c34)c(C(F)(F)F)cc12)[C@H]1CCN(C(=O)OCCF)C1 (atropisomer, axis not shown) )
Result: < 100 nM

Request: API: value(readout= IC50, system= Avi-KRAS WT (1-169) GppNHp/RAF1 RBD-3xFLAG (52-151) (Homo sapiens, UniProt P01116), query= CCN(c1nc(OC[C@@]23CCCN2C[C@H](F)C3)nc2c(F)c(-c3ccc(F)c4sc(N)c(C#N)c34)c(C(F)(F)F)cc12)[C@H]1C[C@@H](C)N(C(=O)C2COC2)C1 (atropisomer, axis not shown) )
Result: < 100 nM

Request: API: value(readout= IC50, system= Avi-KRAS WT (1-169) GppNHp/RAF1 RBD-3xFLAG (52-151) (Homo sapiens, UniProt P01116), query= CCN(c1nc(OC[C@@]23CCCN2C[C@H](F)C3)nc2c(F)c(-c3ccc(F)c4sc(N)c(C#N)c34)c(C(F)(F)F)cc12)[C@H]1CCN(C(=O)[C@H]2CCO2)C1 (atropisomer, axis not shown) )
Result: < 100 nM

Request: API: value(readout= IC50, system= Avi-KRAS WT (1-169) GppNHp/RAF1 RBD-3xFLAG (52-151) (Homo sapiens, UniProt P01116), query= CCN(c1nc(OC[C@@]23CCCN2C[C@H](F)C3)nc2c(F)c(-c3ccc(F)c4sc(N)c(C#N)c34)c(C(F)(F)F)cc12)[C@H]1CCN(C(=O)OC)[C@@H]1C (atropisomer, axis not shown) )
Result: 100 to 1000 nM

Request: API: value(readout= IC50, system= Avi-KRAS WT (1-169) GppNHp/RAF1 RBD-3xFLAG (52-151) (Homo sapiens, UniProt P01116), query= CCN(c1nc(OC[C@@]23CCCN2C[C@H](F)C3)nc2c(F)c(-c3ccc(F)c4sc(N)c(C#N)c34)c(C(F)(F)F)cc12)[C@H]1C[C@H]2CCOC(=O)N2C1 (atropisomer, axis not shown) )
Result: < 100 nM

Request: API: value(readout= IC50, system= Avi-KRAS WT (1-169) GppNHp/RAF1 RBD-3xFLAG (52-151) (Homo sapiens, UniProt P01116), query= N#Cc1c(N)sc2c(F)ccc(-c3c(C(F)(F)F)cc4c(N(Cc5cccnc5N)C5CC5)nc(OC[C@@]56CCCN5C[C@H](F)C6)nc4c3F)c12 (atropisomer, axis not shown) )
Result: 1000 to 10000 nM

Request: API: value(readout= IC50, system= Avi-KRAS WT (1-169) GppNHp/RAF1 RBD-3xFLAG (52-151) (Homo sapiens, UniProt P01116), query= CCN(c1nc(OC[C@@]23CCCN2C[C@H](F)C3)nc2c(F)c(-c3ccc(F)c4sc(N)c(C#N)c34)c(C(F)(F)F)cc12)[C@H]1CCN(C(=O)OCC2CC2)C1 (atropisomer, axis not shown) )
Result: 100 to 1000 nM

Request: API: value(readout= IC50, system= Avi-KRAS WT (1-169) GppNHp/RAF1 RBD-3xFLAG (52-151) (Homo sapiens, UniProt P01116), query= Cc1nnn2c1CN(c1nc(OC[C@@]34CCCN3C[C@H](F)C4)nc3c(F)c(-c4ccc(F)c5sc(N)c(C#N)c45)c(C(F)(F)F)cc13)[C@@H](C)C2 (atropisomer, axis not shown) )
Result: 100 to 1000 nM

Request: API: value(readout= IC50, system= Avi-KRAS WT (1-169) GppNHp/RAF1 RBD-3xFLAG (52-151) (Homo sapiens, UniProt P01116), query= CCN(c1nc(OC[C@@]23CCCN2C[C@H](F)C3)nc2c(F)c(-c3ccc(F)c4sc(N)c(C#N)c34)c(C(F)(F)F)cc12)[C@H]1CCN(C(=O)C2CC2(F)F)C1 (stereo partly drawn) )
Result: < 100 nM
